biological target: 11β-HSD 1 (Homo sapiens); construct: detecting cortisol generated from cortisterone by human liver microsomes; from tissue; host or cells: human liver microsomes; assay: In vitro inhibition of 11β-HSD 1, HTRF detection of cortisol generated by human liver microsomes; assay type: biochemical; conditions: 1 μM test compound, 100% indicates no inhibition, zero or below zero indicates complete inhibition (relative to carbenoxolone)
MEASURED_ENDPOINT: Inhibitory activity on 11β-HSD 1, % CTL

                                   compound          target_or_system                        measured_endpoint  experimental_result
0  Cc1nc2cc(C(=O)N3[C@@H]4CC[C@H]3C[C@@H](c3ccc(F)cc3)C4)ccc2c(=O)[nH]1 [Example 69]  11β-HSD 1 (Homo sapiens)  Inhibitory activity on 11β-HSD 1, % CTL             93 % CTL
1  O=C(c1cccc2[nH]cnc12)N1[C@@H]2CC[C@H]1C[C@@H](c1ccc(F)cc1)C2 [Example 73]  11β-HSD 1 (Homo sapiens)  Inhibitory activity on 11β-HSD 1, % CTL             90 % CTL
2  O=C(c1ccc2c(c1)OCCO2)N1C2CCC1CC(c1ccc(Cl)cc1)C2 (stereo not shown) [Example 151]  11β-HSD 1 (Homo sapiens)  Inhibitory activity on 11β-HSD 1, % CTL            −44 % CTL

Okay, next one:
Indicate its recorded Inhibitory activity on 11β-HSD 1, % CTL; the compound in question is O=C(c1ccc2ncsc2c1)N1[C@@H]2CC[C@H]1C[C@@H](c1ccc(F)cc1)C2 [Example 94] 12 % CTL

---

molecular target: 11β-HSD 1 (Homo sapiens, UniProt P28845); construct: detecting cortisol generated from cortisterone by human liver microsomes; from tissue; host or cells: human liver microsomes; experiment: In vitro inhibition of 11β-HSD 1, HTRF detection of cortisol generated by human liver microsomes; assay type: biochemical; conditions: 1 μM test compound, 100% indicates no inhibition, zero or below zero indicates complete inhibition (relative to carbenoxolone), 1 µM
Sequence (P28845 whole entry): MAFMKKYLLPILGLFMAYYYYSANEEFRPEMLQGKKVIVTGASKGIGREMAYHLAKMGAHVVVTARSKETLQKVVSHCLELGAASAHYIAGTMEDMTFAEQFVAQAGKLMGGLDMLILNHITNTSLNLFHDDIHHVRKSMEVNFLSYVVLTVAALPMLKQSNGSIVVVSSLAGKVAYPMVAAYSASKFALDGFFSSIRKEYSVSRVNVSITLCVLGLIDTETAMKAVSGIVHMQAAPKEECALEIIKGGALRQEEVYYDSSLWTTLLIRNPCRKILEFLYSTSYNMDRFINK
MEASURED_ENDPOINT: Inhibitory activity on 11β-HSD 1, % CTL
Answer as a quantity: numeral, then unit.

// solved cases for Inhibitory activity on 11β-HSD 1, % CTL follow
>>> print(df.to_string())
                                   compound  experimental_result
0  NC(=O)c1ccc(C(=O)N2[C@@H]3CC[C@H]2C[C@@H](c2ccc(F)cc2)C3)cc1 [Example 81]             −9 % CTL
1  O=C(c1ccccn1)N1[C@@H]2CC[C@H]1C[C@@H](c1ccc(F)cc1)C2 [Example 98]             74 % CTL

Indicate its recorded Inhibitory activity on 11β-HSD 1, % CTL; the compound in question is O=C(c1ccccn1)N1[C@@H]2CC[C@H]1C[C@@H](c1ccc(F)cc1)C2 [Example 18] 97 % CTL

Indicate its recorded Inhibitory activity on 11β-HSD 1, % CTL; the compound in question is NC(=O)c1ccc(C(=O)N2[C@@H]3CC[C@H]2C[C@@H](c2ccc(F)cc2)C3)cc1 [Example 2] −27 % CTL

---

This listing pairs compounds with measured Inhibitory activity on 11β-HSD 1, % CTL.
target: 11β-HSD 1 (Homo sapiens, UniProt P28845); construct: detecting cortisol generated from cortisterone by human liver microsomes; from tissue; host or cells: human liver microsomes; test: In vitro inhibition of 11β-HSD 1, HTRF detection of cortisol generated by human liver microsomes; assay type: biochemical; conditions: 1 μM test compound, 100% indicates no inhibition, zero or below zero indicates complete inhibition (relative to carbenoxolone)
Answer as a quantity: numeral, then unit.

// solved cases for Inhibitory activity on 11β-HSD 1, % CTL follow
>>> df
                           smiles_structure  experimental_result
0  CS(=O)(=O)N1CCc2cc(C(=O)N3[C@@H]4CC[C@H]3C[C@@H](c3ccc(F)cc3)C4)ccc21             87 % CTL
1  O=C(c1ccc2c(c1)OCCO2)N1[C@@H]2CC[C@H]1C[C@@H](c1ccc3ccccc3c1)C2             38 % CTL
2  Cn1ccc2ccc(C(=O)N3[C@@H]4CC[C@H]3C[C@@H](c3ccc(F)cc3)C4)cc21            −55 % CTL

Okay, next one:
Indicate its recorded Inhibitory activity on 11β-HSD 1, % CTL; the compound in question is COC(=O)c1cccc(C(=O)N2[C@@H]3CC[C@H]2C[C@@H](c2ccc(F)cc2)C3)c1 94 % CTL
